Recorded values, source patent US12258327B2.

# systemName: EGFR wildtype (WT) (Homo sapiens)
# Sequence (P00533 25-1210): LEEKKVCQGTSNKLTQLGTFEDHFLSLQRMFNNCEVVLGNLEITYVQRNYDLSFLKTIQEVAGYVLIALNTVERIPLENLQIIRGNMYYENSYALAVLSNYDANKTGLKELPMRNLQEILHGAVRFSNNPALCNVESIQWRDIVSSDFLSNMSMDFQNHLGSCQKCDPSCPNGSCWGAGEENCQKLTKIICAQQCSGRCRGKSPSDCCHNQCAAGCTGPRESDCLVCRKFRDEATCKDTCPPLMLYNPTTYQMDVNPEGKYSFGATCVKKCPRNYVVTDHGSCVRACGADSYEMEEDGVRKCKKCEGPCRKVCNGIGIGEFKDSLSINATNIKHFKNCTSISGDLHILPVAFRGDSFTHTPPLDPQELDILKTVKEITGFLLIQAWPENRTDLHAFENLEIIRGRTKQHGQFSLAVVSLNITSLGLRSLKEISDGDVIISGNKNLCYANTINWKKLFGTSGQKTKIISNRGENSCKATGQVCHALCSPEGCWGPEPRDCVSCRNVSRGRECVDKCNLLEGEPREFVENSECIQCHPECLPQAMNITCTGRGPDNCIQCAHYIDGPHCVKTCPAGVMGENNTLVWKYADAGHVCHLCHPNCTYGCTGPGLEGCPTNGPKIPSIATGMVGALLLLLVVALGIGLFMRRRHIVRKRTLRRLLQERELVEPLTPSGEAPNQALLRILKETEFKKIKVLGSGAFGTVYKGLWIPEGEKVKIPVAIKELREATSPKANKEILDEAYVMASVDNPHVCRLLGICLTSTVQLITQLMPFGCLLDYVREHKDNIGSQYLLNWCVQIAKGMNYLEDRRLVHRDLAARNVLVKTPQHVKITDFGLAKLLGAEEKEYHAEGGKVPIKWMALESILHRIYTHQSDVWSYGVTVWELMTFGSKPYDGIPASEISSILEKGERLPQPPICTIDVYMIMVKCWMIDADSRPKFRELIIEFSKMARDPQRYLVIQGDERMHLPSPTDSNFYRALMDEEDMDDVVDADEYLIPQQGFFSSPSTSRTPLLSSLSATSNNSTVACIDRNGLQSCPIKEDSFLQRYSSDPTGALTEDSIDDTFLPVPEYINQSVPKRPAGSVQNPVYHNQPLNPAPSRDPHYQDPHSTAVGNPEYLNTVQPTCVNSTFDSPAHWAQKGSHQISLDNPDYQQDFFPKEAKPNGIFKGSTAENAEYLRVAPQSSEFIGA
# assayNotes: Biochemical EGFR kinase assay (Lance Ultra TR-FRET), wildtype
# measurementConditions: IC50 WT (nM) 100 μM ATP, 100 μM ATP
measurementName: IC50

Q: Param readout = IC50; param system = EGFR wildtype (WT) (Homo sapiens); param query = CN(C)CC1CCC(Nc2cc(Nc3ccnc(-c4cnn(S(=O)(=O)C5CC5)c4)n3)ncc2-c2ccn(C3COC3)n2)CC1 (stereo not shown) ; response: value
A: 387 nM

Q: Param readout = IC50; param system = EGFR wildtype (WT) (Homo sapiens); param query = "CN(C)C[C@H]1CC[C@@H](Nc2cc(Nc3ccnc(-c4cnn(S(=O)(=O)C5CC5)c4)n3)ncc2-c2cc(C(C)(C)O)n(C)n2)CC1" ; response: value
A: 38.9 nM

Q: Param readout = IC50; param system = EGFR wildtype (WT) (Homo sapiens); param query = "CN(C)CCCn1ccc(-c2cnc(Nc3ccnc(-c4cnn(S(=O)(=O)C5CC5)c4)n3)cc2N[C@H]2CC[C@@](C)(O)CC2)n1" ; response: value
A: 133 nM

Q: Param readout = IC50; param system = EGFR wildtype (WT) (Homo sapiens); param query = "Cn1ccc(-c2cnc(Nc3ccnc(-c4cnn(S(=O)(=O)C5CC5)c4)n3)cc2N[C@H]2CC[C@]3(CCC(=O)N3)CC2)n1" ; response: value
A: > 10000 nM

Q: Param readout = IC50; param system = EGFR wildtype (WT) (Homo sapiens); param query = "CN(CC(F)F)C[C@H]1CC[C@@H](Nc2cc(Nc3ccnc(-c4cnn(S(=O)(=O)C5CC5)c4)n3)ncc2-c2ccn(C(F)F)n2)CC1" ; response: value
A: > 10000 nM

Q: Param readout = IC50; param system = EGFR wildtype (WT) (Homo sapiens); param query = "CC(C)(O)c1nc(-c2cnc(Nc3ccnc(-c4cnn(S(=O)(=O)C5CC5)c4)n3)cc2N[C@H]2CCC[C@H](O)C2)cs1" ; response: value
A: > 10000 nM

Q: Param readout = IC50; param system = EGFR wildtype (WT) (Homo sapiens); param query = "CN(C)C[C@H]1CC[C@@H](Nc2cc(Nc3ccnc(-c4cnn(S(=O)(=O)C5CC5)c4)n3)ncc2-c2ccn(C)n2)CC1" ; response: value
A: 96.9 nM

Q: Param readout = IC50; param system = EGFR wildtype (WT) (Homo sapiens); param query = "CCOC(=O)c1ccn(-c2cnc(Nc3ccnc(-c4cnn(S(=O)(=O)C5CC5)c4)n3)cc2N[C@H]2CC[C@@](C)(O)CC2)n1" ; response: value
A: > 10000 nM

Q: Param readout = IC50; param system = EGFR wildtype (WT) (Homo sapiens); param query = "CN[C@H]1CC[C@@H](Nc2cc(Nc3ccnc(-c4cnn(S(=O)(=O)C5CC5)c4)n3)ncc2-c2ccco2)CC1" ; response: value
A: > 10000 nM

Q: Param readout = IC50; param system = EGFR wildtype (WT) (Homo sapiens); param query = "CC(C)(O)[C@H]1CC[C@@H](Nc2cc(Nc3ccnc(-c4cnn(S(=O)(=O)C5CC5)c4)n3)ncc2-c2ccn(CC(F)F)n2)CC1" ; response: value
A: 4010 nM

Q: Param readout = IC50; param system = EGFR wildtype (WT) (Homo sapiens); param query = O=S(=O)(C1CC1)n1cc(-c2nccc(Nc3cc(NC4CCC(CCO)CC4)c(-c4ccn(C(F)F)n4)cn3)n2)cn1 (stereo not shown) ; response: value
A: > 10000 nM

Q: Param readout = IC50; param system = EGFR wildtype (WT) (Homo sapiens); param query = "O=S(=O)(C1CC1)n1cc(-c2nccc(Nc3cc(NC[C@H]4CC[C@H](O)CC4)c(-c4ccn(C(F)F)n4)cn3)n2)cn1" ; response: value
A: > 10000 nM

Q: Param readout = IC50; param system = EGFR wildtype (WT) (Homo sapiens); param query = CC1(CNc2cc(Nc3ccnc(-c4cnn(S(=O)(=O)C5CC5)c4)n3)ncc2-c2ccn(C(F)F)n2)CCC(O)CC1 (stereo not shown) ; response: value
A: > 10000 nM
